target_entity: Androgen receptor (Homo sapiens) (UniProt P10275);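 note: human 22Rv1 prostate cells carrying an ARE14 reporter, AR activity judged by reduced PSA protein on immunoblot after 24 h exposure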
Sequence (P10275 whole entry): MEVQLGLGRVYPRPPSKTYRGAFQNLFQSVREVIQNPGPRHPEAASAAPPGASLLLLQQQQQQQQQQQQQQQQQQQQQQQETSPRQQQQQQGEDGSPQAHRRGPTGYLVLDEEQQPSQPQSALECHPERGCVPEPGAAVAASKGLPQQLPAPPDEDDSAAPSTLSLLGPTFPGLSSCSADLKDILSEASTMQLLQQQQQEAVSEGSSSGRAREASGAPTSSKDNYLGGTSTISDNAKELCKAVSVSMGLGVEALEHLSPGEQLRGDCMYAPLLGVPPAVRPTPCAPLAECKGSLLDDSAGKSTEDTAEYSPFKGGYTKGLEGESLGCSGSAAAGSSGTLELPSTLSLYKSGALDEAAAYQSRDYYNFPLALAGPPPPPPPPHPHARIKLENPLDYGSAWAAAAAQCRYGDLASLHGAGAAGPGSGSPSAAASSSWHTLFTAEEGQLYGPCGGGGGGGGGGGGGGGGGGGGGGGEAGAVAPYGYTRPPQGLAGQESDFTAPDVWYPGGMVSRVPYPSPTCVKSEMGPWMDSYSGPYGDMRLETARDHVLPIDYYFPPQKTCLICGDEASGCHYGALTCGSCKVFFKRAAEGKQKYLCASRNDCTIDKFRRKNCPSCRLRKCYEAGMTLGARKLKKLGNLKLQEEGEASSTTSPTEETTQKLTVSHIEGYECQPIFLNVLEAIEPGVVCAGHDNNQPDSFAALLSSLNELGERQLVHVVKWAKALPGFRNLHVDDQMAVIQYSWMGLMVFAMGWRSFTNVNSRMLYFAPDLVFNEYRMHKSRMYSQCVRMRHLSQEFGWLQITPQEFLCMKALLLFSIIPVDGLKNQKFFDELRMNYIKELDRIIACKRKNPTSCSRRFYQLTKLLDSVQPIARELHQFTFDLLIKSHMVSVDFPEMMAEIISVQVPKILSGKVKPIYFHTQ
recorded_conditions: at 10 µM
Description: Inhibition of AR transcriptional activity in AR-positive human 22Rv1 cells harboring ARE14 construct assessed as suppression of PSA expression at 10 uM after 24 hrs by immunoblot analysis
Active and inactive are the calls of the source. No cut-off for these calls is given here.
quantity: inhibition

{"columns": ["structure_as_smiles", "target_entity", "value"],
 "data": [
  ["COC(=O)c1nn2c(c1C(=O)OC)C[C@]1(C(C)=O)[C@@H](C[C@H]3[C@@H]4CCC5=CC(=O)CC[C@]5(C)[C@H]4CC[C@@]31C)[C@H]2Cc1ccccc1", "Androgen receptor (Homo sapiens) (UniProt P10275)", "Active"],
  ["COC(=O)c1nn2c(c1C(=O)OC)C[C@]1(C(C)=O)[C@@H](C[C@H]3[C@@H]4CC=C5C[C@@H](OC(C)=O)CC[C@]5(C)[C@H]4CC[C@@]31C)[C@H]2Cc1ccccc1", "Androgen receptor (Homo sapiens) (UniProt P10275)", "inactive"],
  ["C[C@@H](O)[C@@]12Cc3c(CO)c(CO)nn3C[C@@H]1C[C@H]1[C@@H]3CC=C4C[C@@H](O)CC[C@]4(C)[C@H]3CC[C@@]12C", "Androgen receptor (Homo sapiens) (UniProt P10275)", "inactive"],
  ["COC(=O)c1cnn2c1C[C@]1(C(C)=O)[C@@H](C[C@H]3[C@@H]4CC=C5C[C@@H](OC(C)=O)CC[C@]5(C)[C@H]4CC[C@@]31C)C2", "Androgen receptor (Homo sapiens) (UniProt P10275)", "Active"],
  ["C[C@@H](O)[C@@]12Cc3c(CO)c(CO)nn3[C@H](Cc3ccccc3)[C@@H]1C[C@H]1[C@@H]3CC=C4C[C@@H](O)CC[C@]4(C)[C@H]3CC[C@@]12C", "Androgen receptor (Homo sapiens) (UniProt P10275)", "Active"],
  ["COC(=O)c1nn2c(c1C(=O)OC)C[C@]1(C(C)=O)[C@@H](C[C@H]3[C@@H]4CC=C5C[C@@H](O)CC[C@]5(C)[C@H]4CC[C@@]31C)C2", "Androgen receptor (Homo sapiens) (UniProt P10275)", "inactive"],
  ["COC(=O)c1cnn2c1C[C@]1(C(C)=O)[C@@H](C[C@H]3[C@@H]4CCC5=CC(=O)CC[C@]5(C)[C@H]4CC[C@@]31C)C2", "Androgen receptor (Homo sapiens) (UniProt P10275)", "Active"],
  ["COC(=O)c1cnn2c1C[C@]1(C(C)=O)[C@@H](C[C@H]3[C@@H]4CC=C5C[C@@H](O)CC[C@]5(C)[C@H]4CC[C@@]31C)C2", "Androgen receptor (Homo sapiens) (UniProt P10275)", "Active"]
]}

The reported numbers originate from ChEMBL document CHEMBL4364252.
